- System: ACHN
- TEST DESCRIPTION: NCI tumour cell line growth inhibition, 48 h
Activity calls are given as the source filed them. Rule as the data show it: active = GI50 up to about 1.1 µM and inactive = higher.
Your answer must be one of the following: active, inactive

Consider the following illustrative entries.
COc1cc(O)c(C(=O)/C=C/c2ccc(O)cc2)cc1Oc1ccc(C(=O)/C=C/c2ccc(O)cc2)c(O)c1; inactive
CCOC(=O)c1c(Nc2ccccc2)sc2cccnc12; inactive
CC(C)(C)/N=c1/n(C(C)(C)C)oc(=O)n1-c1ccccc1; inactive
O=C(O)CNn1c(SCC(=O)O)nnc(/C=C/c2c(O)ccc3ccccc23)c1=O; inactive
CCN(CC)C(=S)SS(=O)(=O)c1ccc(NC(C)=O)cc1; inactive
Cc1nc2c(o1)/C(=N\c1ccccc1)c1ccccc1/C2=N/c1ccccc1; inactive

Consider now this further compound.
Input line: Query: recorded result category for COc1c2c(c3c(c1C1OC(C)[C@@H](C)O1)CC(C)(C)O3)C(=O)c1ccccc1C2=O (stereo partly drawn) in this test
Output line: inactive
